- Tested on: Ba/F3 KIF5B-RET^G810R cell line tumor model
- assay: Anti-tumor effect assay in Ba/F3 KIF5B-RET^G810R cell line tumor model (allograft)
- Format: in vivo, female NPSG mice
- condition label: day 13 of administration; AD80 group 25 mg/kg
Recorded relative tumor inhibition rate TGI (%) for the following compounds
Please append the unit to your numeric answer.

# compound, assay metric, obs value
data = [
    ("CC(C)n1nc(-c2ccc(NC(=O)Nc3cc(C(F)(F)F)ccc3F)cc2)c2c(N)ncnc21 [AD80, reference compound]", "relative tumor inhibition rate TGI (%)", "75.2%"),
    ("CC(C)n1nc(-c2ccc(CC(=O)Nc3cc(C(C)(C)C(F)(F)F)no3)cc2)c2c(N)ncnc21 [Compound T-8]", "relative tumor inhibition rate TGI (%)", "101.6%"),
    ("CC(C)n1nc(-c2ccc(NC(=O)Nc3cc(C(C)(C)C(F)(F)F)on3)cc2)c2c(N)ncnc21 [Compound T-2]", "relative tumor inhibition rate TGI (%)", "84.6%"),
]

Request: relative tumor inhibition rate TGI (%), test system Ba/F3 KIF5B-RET^G810R cell line tumor model, entry CC(C)n1cc(-c2ccc(CC(=O)Nc3cc(C(C)(C)C(F)(F)F)on3)cc2)c2c(N)ncnc21 [Compound T-3]
91.6%

Moving on to CC(C)n1nc(-c2ccc(CC(=O)Nc3cc(C(C)(C)C(F)(F)F)on3)c(F)c2)c2c(N)ncnc21 [Compound T-6]
100.9%

Moving on to CC(C)n1nc(-c2ccc(CC(=O)Nc3cc(C(C)(C)C(F)(F)F)on3)cc2)c2c(N)ncnc21 [Compound T-1]
109.4%

###

- measured target: Ba/F3 FLT3-ITD^F691L cells (Homo sapiens, UniProt P36888, F691L, cells depend on it, form not given)
- Construct: Ba/F3 FLT3-ITD^F691L IC50 (nM); other: CellTiter-Glo, 72 hrs
- Sequence (P36888 1-993 F691L): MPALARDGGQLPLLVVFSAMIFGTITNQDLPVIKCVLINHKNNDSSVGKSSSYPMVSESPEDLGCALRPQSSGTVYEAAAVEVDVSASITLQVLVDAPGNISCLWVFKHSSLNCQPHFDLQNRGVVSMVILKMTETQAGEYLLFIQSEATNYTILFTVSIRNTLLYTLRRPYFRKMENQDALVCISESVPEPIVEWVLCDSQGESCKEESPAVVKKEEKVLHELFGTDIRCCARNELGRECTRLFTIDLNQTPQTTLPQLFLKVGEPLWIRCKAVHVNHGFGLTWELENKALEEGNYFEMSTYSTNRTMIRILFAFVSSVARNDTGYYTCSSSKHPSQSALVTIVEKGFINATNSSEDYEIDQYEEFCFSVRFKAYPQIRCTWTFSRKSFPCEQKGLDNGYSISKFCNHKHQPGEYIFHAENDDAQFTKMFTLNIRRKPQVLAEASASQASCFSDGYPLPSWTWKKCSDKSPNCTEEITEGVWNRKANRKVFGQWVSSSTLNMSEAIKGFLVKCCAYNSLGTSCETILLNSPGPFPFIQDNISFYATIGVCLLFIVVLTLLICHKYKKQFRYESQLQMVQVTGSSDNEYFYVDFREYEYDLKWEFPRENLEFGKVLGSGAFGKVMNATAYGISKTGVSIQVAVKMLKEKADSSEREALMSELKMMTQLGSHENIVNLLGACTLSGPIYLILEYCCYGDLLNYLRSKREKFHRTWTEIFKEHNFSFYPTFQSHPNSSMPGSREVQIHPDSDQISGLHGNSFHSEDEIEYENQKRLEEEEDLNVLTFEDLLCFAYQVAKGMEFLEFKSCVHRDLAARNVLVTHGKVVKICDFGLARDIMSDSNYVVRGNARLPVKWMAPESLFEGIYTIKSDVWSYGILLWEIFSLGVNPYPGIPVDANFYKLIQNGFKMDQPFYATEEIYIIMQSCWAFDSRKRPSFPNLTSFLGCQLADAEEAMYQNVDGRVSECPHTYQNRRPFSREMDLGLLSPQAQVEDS
- assay: Cytotoxicity assay (CellTiter-Glo), Ba/F3 FLT3-ITD F691L
- Type: cell-based
- condition label: CellTiter-Glo, 72 hrs; read-out: Ba/F3 FLT3-ITD^F691L IC50
assay metric: GI50 (nM)
Field: numeric (nM). Do not append units.

Study these solved cases before continuing.
# mol, obs value
data = [
    ("CC(C)n1nc(-c2ccc(CC(=O)Nc3cc(C(C)(C)C(F)(F)F)no3)cc2)c2c(N)ncnc21", 6.28),
    ("CC(C)c1nc(-c2ccc(CC(=O)Nc3cc(C(C)(C)C(F)(F)F)on3)cc2)c2c(N)nccn12", 16.6),
    ("CC(C)n1nc(-c2ccc(CC(=O)Nc3cc(C(C)(C)C(F)(F)F)on3)c(F)c2)c2c(N)ncnc21", 6.26),
    ("CC(C)n1nc(-c2ccc(NC(=O)Nc3cc(C(C)(C)C(F)(F)F)on3)cc2)c2c(N)ncnc21", 2.93),
    ("CC(C)n1nc(-c2ccc(CC(=O)Nc3cc(C(C)(C)C(F)(F)F)no3)cn2)c2c(N)ncnc21", 28.1),
]

Which GI50 is reported for this compound? CC(C)n1nc(-c2ccc(CC(=O)Nc3cc(C(C)(C)C(F)(F)F)on3)cc2)c2c(N)ncnc21
7.7

Moving on to CC(C)c1cc(-c2ccc(CC(=O)Nc3cc(C(C)(C)C(F)(F)F)on3)cc2)c2c(N)ncnn12
11.4

###

Recorded Weight change rate (%), Day 13 of administration for the following compounds
- assay: Safety assay (body weight, tolerability) in Ba/F3 KIF5B-RET^G810R cell line tumor model
- Type: in vivo
- condition label: 25 mg/kg p.o. QD × 13, day 13
- Method: Assay methods: 1) Ba/F3 KIF5B-RET and Ba/F3 KIF5B-RET^G810R cells were respectively resuscitated and Cultured in vitro, and 3×10^7 cells of each type were obtained. […] 4) After inoculation, tumor volume and body weight were measured once a week. […] Informations on administration and grouping were shown in Tables 5 and 6.5) After the start of the administration, the body weight and tumor volume of mice were measured twice a week. […]
Field: numeric (%). Do not append units.

# compound, obs value
records = [
    ("CC(C)n1nc(-c2ccc(CC(=O)Nc3cc(C(C)(C)C(F)(F)F)no3)cc2)c2c(N)ncnc21", 14.40),
    ("CC(C)n1nc(-c2ccc(CC(=O)Nc3cc(C(C)(C)C(F)(F)F)on3)cc2)c2c(N)ncnc21", 4.90),
    ("CC(C)n1nc(-c2ccc(CC(=O)Nc3cc(C(C)(C)C(F)(F)F)on3)c(F)c2)c2c(N)ncnc21", 15.75),
    ("CC(C)n1nc(-c2ccc(NC(=O)Nc3cc(C(C)(C)C(F)(F)F)on3)cc2)c2c(N)ncnc21", 11.05),
    ("CC(C)n1cc(-c2ccc(CC(=O)Nc3cc(C(C)(C)C(F)(F)F)on3)cc2)c2c(N)ncnc21", 16.01),
]

Now look at this one.
Which Weight change rate (%), Day 13 of administration is reported for this compound? CC(C)n1nc(-c2ccc(NC(=O)Nc3cc(C(F)(F)F)ccc3F)cc2)c2c(N)ncnc21 [AD80, reference compound]
4.14

###

- assay: Safety assay (body weight, tolerability) in Ba/F3 KIF5B-RET cell line tumor model
- Type: in vivo
- condition label: 10 mg/kg p.o. QD × 14, day 14
assay metric: Average weight g (x ± S), Day 14 of administration (g)
Field: numeric (g). Do not append units.

Study these solved cases before continuing.
# compound, obs value
measured = [
    ("CC(C)n1nc(-c2ccc(NC(=O)Nc3cc(C(C)(C)C(F)(F)F)on3)cc2)c2c(N)ncnc21", 21.7),
    ("CC(C)n1nc(-c2ccc(CC(=O)Nc3cc(C(C)(C)C(F)(F)F)no3)cc2)c2c(N)ncnc21", 21.7),
    ("CC(C)n1cc(-c2ccc(CC(=O)Nc3cc(C(C)(C)C(F)(F)F)on3)cc2)c2c(N)ncnc21", 21.5),
    ("CC(C)n1nc(-c2ccc(CC(=O)Nc3cc(C(C)(C)C(F)(F)F)on3)c(F)c2)c2c(N)ncnc21", 21),
    ("CC(C)n1nc(-c2ccc(CC(=O)Nc3cc(C(C)(C)C(F)(F)F)on3)cc2)c2c(N)ncnc21", 21.6),
]

Now look at this one.
Which Average weight g (x ± S), Day 14 of administration is reported for this compound? CC(C)n1nc(-c2ccc(NC(=O)Nc3cc(C(F)(F)F)ccc3F)cc2)c2c(N)ncnc21 [AD80, reference compound]
22.6

###

Recorded GI50 for the following molecules
- measured target: Ba/F3 KIF5B-RET^G810R cells (Homo sapiens, UniProt P07949, G810R, cells depend on it)
- Construct: Ba/F3 KIF5B-RET^G810R IC50 (nM); other: CellTiter-Glo, 72 hrs; fused on or other part: P33176 (Kinesin-1 heavy chain)
- Sequence (P07949 whole entry G810R, the tested form may be a part): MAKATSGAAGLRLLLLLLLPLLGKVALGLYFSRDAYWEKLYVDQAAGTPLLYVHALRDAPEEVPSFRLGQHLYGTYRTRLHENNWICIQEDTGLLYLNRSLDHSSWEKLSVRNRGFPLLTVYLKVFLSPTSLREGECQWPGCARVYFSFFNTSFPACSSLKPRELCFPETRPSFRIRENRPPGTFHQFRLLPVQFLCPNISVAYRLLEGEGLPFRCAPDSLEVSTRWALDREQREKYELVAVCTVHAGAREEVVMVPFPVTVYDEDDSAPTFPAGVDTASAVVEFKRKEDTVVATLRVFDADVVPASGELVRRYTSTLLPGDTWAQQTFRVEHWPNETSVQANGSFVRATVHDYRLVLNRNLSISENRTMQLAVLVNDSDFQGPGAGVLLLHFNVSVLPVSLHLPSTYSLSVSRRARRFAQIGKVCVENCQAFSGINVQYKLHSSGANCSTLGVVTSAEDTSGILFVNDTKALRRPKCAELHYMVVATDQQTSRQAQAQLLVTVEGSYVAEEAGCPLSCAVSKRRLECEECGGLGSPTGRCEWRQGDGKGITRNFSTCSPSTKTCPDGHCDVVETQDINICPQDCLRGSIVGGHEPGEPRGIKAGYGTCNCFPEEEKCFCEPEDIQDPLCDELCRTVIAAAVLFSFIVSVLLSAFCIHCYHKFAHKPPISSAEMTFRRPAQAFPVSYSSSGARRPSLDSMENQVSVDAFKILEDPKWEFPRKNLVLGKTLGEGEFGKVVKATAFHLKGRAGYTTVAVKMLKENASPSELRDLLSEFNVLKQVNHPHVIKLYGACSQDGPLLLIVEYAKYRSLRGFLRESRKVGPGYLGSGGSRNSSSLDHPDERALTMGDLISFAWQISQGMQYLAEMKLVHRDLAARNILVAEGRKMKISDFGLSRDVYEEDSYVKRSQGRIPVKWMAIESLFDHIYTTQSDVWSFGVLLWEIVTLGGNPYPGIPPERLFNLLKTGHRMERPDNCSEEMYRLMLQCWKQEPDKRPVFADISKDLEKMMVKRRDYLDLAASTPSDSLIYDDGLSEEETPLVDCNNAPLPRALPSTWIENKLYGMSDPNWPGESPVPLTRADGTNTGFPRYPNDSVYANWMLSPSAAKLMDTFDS
- assay: Cytotoxicity assay (CellTiter-Glo), Ba/F3 KIF5B-RET G810R
- Assay type: cell-based
- condition label: CellTiter-Glo, 72 hrs; read-out: Ba/F3 KIF5B-RET^G810R IC50
Field: numeric (nM). Do not append units.

Study these solved cases before continuing.
# molecule, obs value
rows = [
    ("[2H]C([2H])([2H])C(n1nc(-c2ccc(CC(=O)Nc3cc(C(C)(C)C(F)(F)F)no3)cc2)c2c(N)ncnc21)C([2H])([2H])[2H] [Compound T-11]", 5.86),
    ("CC(C)c1nc(-c2ccc(CC(=O)Nc3cc(C(C)(C)C(F)(F)F)on3)cc2)c2c(N)ncnn12 [Compound T-10]", 2.78),
    ("CC(C)n1nc(-c2ccc(NC(=O)Nc3cc(C(C)(C)C(F)(F)F)on3)cc2)c2c(N)ncnc21 [Compound T-2]", 2.98),
]

Now look at this one.
Which GI50 is reported for this molecule? CC(C)n1nc(-c2ccc(CC(=O)Nc3cc(C(C)(C)C(F)(F)F)on3)cc2)c2c(N)ncnc21 [Compound T-1]
2.64
